Target: cAMP-dependent protein kinase catalytic subunit PRKX (Homo sapiens) (UniProt P51817);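 further: each value is the mean percent inhibition of the kinase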
Sequence (whole entry): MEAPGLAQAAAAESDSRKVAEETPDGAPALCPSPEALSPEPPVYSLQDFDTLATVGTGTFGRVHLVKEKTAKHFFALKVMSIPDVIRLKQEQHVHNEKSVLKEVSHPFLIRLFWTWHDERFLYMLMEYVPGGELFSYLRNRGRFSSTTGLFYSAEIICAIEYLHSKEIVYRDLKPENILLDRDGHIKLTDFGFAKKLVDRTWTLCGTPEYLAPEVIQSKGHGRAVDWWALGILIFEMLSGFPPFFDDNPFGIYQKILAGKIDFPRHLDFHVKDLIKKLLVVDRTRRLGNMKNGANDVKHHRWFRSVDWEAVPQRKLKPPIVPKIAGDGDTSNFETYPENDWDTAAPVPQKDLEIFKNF
Settings: at 1 µM
Below, each entry is listed alongside its reported inhibition.
ENDPOINT NAME: inhibition (%)

compound_smiles=NC(=O)c1ccc(Oc2nccc(-c3c(-c4ccc(F)cc4)ncn3C3CCNCC3)n2)cc1 endpoint_name=inhibition unit_label=% measurement=3.99
compound_smiles=CN(C)c1ccc2c(c1)/C(=C/Nc1ccc(S(N)(=O)=O)cc1)C(=O)N2 endpoint_name=inhibition unit_label=% measurement=2.58
compound_smiles=C#Cc1cccc(Nc2ncnc3ccc(OCCCCNCCS(C)(=O)=O)cc23)c1 endpoint_name=inhibition unit_label=% measurement=4.38
compound_smiles=Cc1ccc(C(=O)NC2CCC2)cc1-c1ccc(C(=O)NCC2CC2)cc1 endpoint_name=inhibition unit_label=% measurement=-0.61
compound_smiles=COc1cc(Nc2ncc3c(C)nc(-c4cccc(Oc5ccccc5)c4)n3n2)cc(OC)c1OC endpoint_name=inhibition unit_label=% measurement=-0.03
compound_smiles=CN(c1ccc(NC(=O)Nc2c(Cl)cccc2Cl)cc1)c1ccnc(Nc2cccc(CS(C)(=O)=O)c2)n1 endpoint_name=inhibition unit_label=% measurement=3.64
compound_smiles=N#Cc1ccc(Oc2nccc(-c3c(-c4ccc(F)cc4)ncn3C3CCNCC3)n2)cc1 endpoint_name=inhibition unit_label=% measurement=2.01
compound_smiles=CN1CCN(CCCNc2nc3ccc(Oc4ccc(NC(=O)Nc5cc(C(F)(F)F)ccc5F)cc4)cc3[nH]2)CC1 endpoint_name=inhibition unit_label=% measurement=1.08
compound_smiles=Fc1ccc(-c2ncn(CCCN3CCOCC3)c2-c2ccncc2)cc1 endpoint_name=inhibition unit_label=% measurement=-1.38

---

Below, each entry is listed alongside its reported inhibition.
molecular target: Tyrosine-protein kinase receptor TYRO3 (Homo sapiens); settings: at 1 µM
Description: GSK_PKIS: TYRO3 mean inhibition at 1 uM [Nanosyn]
ENDPOINT NAME: inhibition (%)

compound=COc1cc2ncn(-c3cc(OCc4cccs4)c(C(N)=O)s3)c2cc1OC unit_label=% measurement=8.04
compound=CN(C)c1ccc2c(c1)/C(=C/Nc1ccc(S(N)(=O)=O)cc1)C(=O)N2 unit_label=% measurement=7.48
compound=COc1cc(Nc2ncc3c(C)nc(-c4cccc(Oc5ccccc5)c4)n3n2)cc(OC)c1OC unit_label=% measurement=5.32
compound=CCC(=O)Nc1ccc(C)c(-c2ccc(C(=O)NCC3CC3)cc2)c1 unit_label=% measurement=2.68
compound="COc1ccc2cc(-c3c(-c4ccncc4)nc(-c4ccc([S+](C)[O-])cc4C)n3C)ccc2c1 (stereo not given)" unit_label=% measurement=2.2
compound=NS(=O)(=O)c1ccc(Nc2cc(-c3ccc(O)c(F)c3)n[nH]2)cc1 unit_label=% measurement=52.3
compound=CCS(=O)(=O)c1ccc(OC)c(Nc2ncc(-c3ccccc3Cl)o2)c1 unit_label=% measurement=42.6
compound=COc1ccc2cc(-c3c(-c4ccncc4)nc(-c4ccc(S(C)(=O)=O)cc4C)n3C)ccc2c1 unit_label=% measurement=5.53
compound=O=C(Nc1n[nH]c2cc(-c3cc(F)ccc3F)ccc12)C1CC1 unit_label=% measurement=11.7
compound=NC(=O)c1ccc(Oc2nccc(-c3c(-c4ccc(F)cc4)ncn3C3CCNCC3)n2)cc1 unit_label=% measurement=4.62
compound=Fc1ccc(-c2c(-c3ccncc3)nc3n2CCS3)cc1 unit_label=% measurement=1.69
compound="Nc1nccc(-c2c(-c3ccc(F)cc3)ncn2C2CCC(O)CC2)n1 (stereo not given)" unit_label=% measurement=2.9
compound=O=C(NCC1CC1)c1ccc(-c2cccc(C(=O)NC3CC3)c2)cc1 unit_label=% measurement=0.81
compound=CN(C)CCOc1ccc(-c2cc(-c3ccc4c(c3)CCC4=NO)c(-c3ccncc3)o2)cc1 unit_label=% measurement=2.92
compound=C[C@@H](Oc1cc(-n2cnc3ccc(OC4CCN(C)CC4)cc32)sc1C(N)=O)c1ccccc1Cl unit_label=% measurement=4.84
compound=Cc1ccc(C(=O)NC2CCC2)cc1-c1ccc(C(=O)NCC2CC2)cc1 unit_label=% measurement=1.69
compound=Fc1ccc(-c2ncn(C3CCNCC3)c2-c2ccnc(Oc3ccc(Oc4ccccc4)cc3)n2)cc1 unit_label=% measurement=2.08
compound=COc1cc(Nc2ncc(-c3ccccc3)o2)cc(OC)c1OC unit_label=% measurement=1.3
compound=Fc1ccc(-c2ncn(C3CCNCC3)c2-c2ccnc(Oc3ccc(F)c(F)c3)n2)cc1 unit_label=% measurement=1.35
compound=CS(=O)(=O)CCNCc1cc(-c2cc3c(Nc4ccc(OCc5cccc(F)c5)c(Cl)c4)ncnc3s2)cs1 unit_label=% measurement=4.28

---

biological target: Tyrosine-protein kinase SYK (Homo sapiens) (UniProt P43405); details: at 0.1 µM;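 further: reported percentages are mean inhibition values for SYK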
Below, each entry is listed alongside its reported inhibition.
ENDPOINT NAME: inhibition (%)

compound_smiles=NC(=O)c1cc(-c2ccc(F)cc2)cc(-c2ccncc2)c1N measurement=-2.32
compound_smiles=Cc1nnc(-c2ccc(C)c(-c3ccc(C(=O)NCc4ccc(Cl)cc4)cc3)c2)o1 measurement=-5.79
compound_smiles=O=C(Nc1n[nH]c2nc(-c3ccc(O)cc3)c(Br)cc12)C1CC1 measurement=-6.1
compound_smiles=CN(c1ccc(NC(=O)Nc2c(Cl)cccc2Cl)cc1)c1ccnc(Nc2cccc(CS(C)(=O)=O)c2)n1 measurement=2.77
compound_smiles=COc1cc(N2CCN(C(C)C)CC2)ccc1Nc1nc(Nc2ccc(F)cc2C(=O)NC[C@@H](O)CO)c2cc[nH]c2n1 measurement=-1.02

---

molecular target: Macrophage-stimulating protein receptor (Homo sapiens) (UniProt Q04912); conditions: at 0.1 µM;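 further: reported values are the mean percent inhibition of RON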
Sequence (Q04912 25-304 limits assumed): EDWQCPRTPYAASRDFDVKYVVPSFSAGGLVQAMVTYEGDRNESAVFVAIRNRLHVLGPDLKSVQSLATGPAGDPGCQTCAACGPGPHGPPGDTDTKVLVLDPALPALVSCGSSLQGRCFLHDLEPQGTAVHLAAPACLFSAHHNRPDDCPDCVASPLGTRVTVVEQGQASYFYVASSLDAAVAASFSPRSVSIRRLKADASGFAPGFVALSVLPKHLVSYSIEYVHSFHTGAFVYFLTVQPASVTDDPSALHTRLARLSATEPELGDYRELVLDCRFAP
Sequence (Q04912 310-1400 limits assumed): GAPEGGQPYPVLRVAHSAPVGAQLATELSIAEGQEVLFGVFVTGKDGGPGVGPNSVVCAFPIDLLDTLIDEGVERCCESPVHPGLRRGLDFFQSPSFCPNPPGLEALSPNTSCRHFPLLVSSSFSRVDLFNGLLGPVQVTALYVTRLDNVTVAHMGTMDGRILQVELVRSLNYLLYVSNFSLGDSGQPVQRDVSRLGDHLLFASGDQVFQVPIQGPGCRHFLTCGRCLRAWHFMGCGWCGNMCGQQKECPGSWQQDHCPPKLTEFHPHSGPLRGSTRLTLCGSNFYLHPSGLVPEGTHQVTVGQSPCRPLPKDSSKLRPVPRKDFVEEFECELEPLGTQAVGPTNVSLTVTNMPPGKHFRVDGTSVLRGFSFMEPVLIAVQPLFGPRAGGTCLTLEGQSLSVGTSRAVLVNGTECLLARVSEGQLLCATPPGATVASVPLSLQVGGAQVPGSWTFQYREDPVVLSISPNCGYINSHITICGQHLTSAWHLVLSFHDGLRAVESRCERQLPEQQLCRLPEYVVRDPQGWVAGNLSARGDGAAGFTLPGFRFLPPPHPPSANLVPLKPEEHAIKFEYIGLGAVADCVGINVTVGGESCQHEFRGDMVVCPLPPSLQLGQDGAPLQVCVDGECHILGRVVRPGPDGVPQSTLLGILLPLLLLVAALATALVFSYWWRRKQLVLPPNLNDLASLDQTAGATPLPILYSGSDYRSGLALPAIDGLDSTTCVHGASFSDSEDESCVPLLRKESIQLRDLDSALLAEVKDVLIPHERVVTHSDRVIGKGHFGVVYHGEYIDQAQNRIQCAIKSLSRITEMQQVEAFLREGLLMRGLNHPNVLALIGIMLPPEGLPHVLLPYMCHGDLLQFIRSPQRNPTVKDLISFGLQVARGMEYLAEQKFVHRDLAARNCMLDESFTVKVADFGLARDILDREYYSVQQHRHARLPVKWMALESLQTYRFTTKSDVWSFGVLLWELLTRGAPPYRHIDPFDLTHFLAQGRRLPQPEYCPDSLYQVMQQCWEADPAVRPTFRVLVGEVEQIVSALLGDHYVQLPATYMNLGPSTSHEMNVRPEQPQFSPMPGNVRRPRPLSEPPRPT
ENDPOINT NAME: inhibition (%)

compound_smiles=NS(=O)(=O)c1ccc(Nc2cc(-c3ccc(O)c(F)c3)n[nH]2)cc1 endpoint_name=inhibition measurement=-1.82
compound_smiles=COc1cc(Nc2ncc(-c3ccccc3)o2)cc(OC)c1OC endpoint_name=inhibition measurement=-0.55
compound_smiles=O=C(NCC1CC1)c1ccc(-c2cccc(C(=O)NC3CC3)c2)cc1 endpoint_name=inhibition measurement=4.01
compound_smiles=COc1cc2ncn(-c3cc(OCc4ccccc4C(F)(F)F)c(C(C)=O)s3)c2cc1OC endpoint_name=inhibition measurement=2.88
compound_smiles=COc1cc(Nc2ncc3c(C)nc(-c4cccc(C(F)(F)F)c4)n3n2)cc(OC)c1OC endpoint_name=inhibition measurement=-0.28
compound_smiles=O=C(Nc1n[nH]c2nc(-c3ccco3)ccc12)C1CC1 endpoint_name=inhibition measurement=-0.93
compound_smiles=CCS(=O)(=O)c1ccc(OC)c(Nc2ncc(-c3ccccc3Cl)o2)c1 endpoint_name=inhibition measurement=-3.54
compound_smiles=COC(=O)Nc1nc2ccc(Sc3ccc(NC(=O)Nc4cc(C(F)(F)F)ccc4F)cc3)cc2[nH]1 endpoint_name=inhibition measurement=-5.81
compound_smiles=CCS(=O)(=O)c1ccc(OC)c(Nc2ncc(-c3cccc(-c4ccccc4F)c3)o2)c1 endpoint_name=inhibition measurement=2.4
compound_smiles=Fc1ccc(-c2ncn(C3CCNCC3)c2-c2ccnc(Oc3ccc(Oc4ccccc4)cc3)n2)cc1 endpoint_name=inhibition measurement=0.16
compound_smiles=COc1cc2ncn(-c3cc(OCc4cccs4)c(C(N)=O)s3)c2cc1OC endpoint_name=inhibition measurement=5.86
compound_smiles=O=C(Nc1n[nH]c2cc(-c3cc(F)ccc3F)ccc12)C1CC1 endpoint_name=inhibition measurement=4.71
compound_smiles=Cc1ccc(NC(=O)c2ccoc2)cc1-c1ccc(C(=O)NCC2CC2)cc1 endpoint_name=inhibition measurement=-2.83
compound_smiles=NC(=O)c1cc(-c2ccncc2)cc(-c2ccccc2)c1N endpoint_name=inhibition measurement=4.63
compound_smiles=COc1cc(Nc2ncc3c(C)nc(-c4cccc(Oc5ccccc5)c4)n3n2)cc(OC)c1OC endpoint_name=inhibition measurement=2.03
compound_smiles=C#Cc1cccc(Nc2ncnc3ccc(OCCCCNCCS(C)(=O)=O)cc23)c1 endpoint_name=inhibition measurement=1.53
compound_smiles=NCc1ccc(-n2c(-c3nonc3N)nc3cnccc32)cc1 endpoint_name=inhibition measurement=2.95
compound_smiles=COc1cccc(/C=N/Nc2ncnc3c2cnn3-c2cccc(OC)c2)c1 endpoint_name=inhibition measurement=0.75
compound_smiles=C[C@@H](Oc1cc(-n2cnc3ccc(OCC4CCN(C)CC4)cc32)sc1C(N)=O)c1ccccc1Cl endpoint_name=inhibition measurement=0.85
compound_smiles=CS(=O)(=O)CCNCc1ccc(-c2ccc3ncnc(Nc4ccc(OCc5ccccc5)c(Br)c4)c3c2)o1 endpoint_name=inhibition measurement=4.89
compound_smiles=O=C1Nc2ccc(I)cc2C1=Cc1cc(Br)c(O)c(Br)c1 endpoint_name=inhibition measurement=8.18
